Recorded values, source patent US20260151494A1.

tested.target: T1, apical domain of human CD71 (human, UniProt P02786 189-383, limits assumed)
T1 construct: domain: apical domain; Screen 4 panned on human apical domains, the ELISA text says only 'apical domain'
T1 sequence (P02786 189-383 limits assumed): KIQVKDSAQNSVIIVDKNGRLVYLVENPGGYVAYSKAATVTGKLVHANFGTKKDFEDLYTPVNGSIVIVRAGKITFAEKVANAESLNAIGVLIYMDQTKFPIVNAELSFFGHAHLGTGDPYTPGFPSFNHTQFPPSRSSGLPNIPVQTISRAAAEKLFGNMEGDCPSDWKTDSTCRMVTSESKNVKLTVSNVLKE
procedure.details: primary ELISA; also: test concentration or dose not given here
endpoint.name: RLU (RLU)

>  <binder>
CD71-binding FN3 domain of SEQ ID NO: 470 (designed binder) MLPAPKNLVVSRVTEDSARLSWTAPDAAFDSFFIGYLEPQPPGEAITLLVPGSERSYDLTGLKPGTEYNVTIQGVKGGFPSMPLSAIFTT

>  <endpoint.name>
RLU

>  <value.units>
RLU

>  <reading>
4.74e+06

$$$$
>  <binder>
CD71-binding FN3 domain of SEQ ID NO: 506 (designed binder) MLPAPKNLVVSRVTEDSARLSWTAPDAAFDSFEIGYWENAYKGEAIVLTVPGSERSYDLTGLKPGTEYVVFIGGVKGGVWSVPLSAISTT

>  <endpoint.name>
RLU

>  <value.units>
RLU

>  <reading>
4.74e+06

$$$$
>  <binder>
CD71-binding FN3 domain of SEQ ID NO: 479 (designed binder) MLPAPKNLVVSRVTEDSARLSWTAPDAAFDSFFIGYLEPQPPGEAINLWVPGSERSYDLTGLKPGTEYNVTIQGVKGGFPSTPLFAGFTT

>  <endpoint.name>
RLU

>  <value.units>
RLU

>  <reading>
4.83e+06

$$$$

A = CD71-binding FN3 domain of SEQ ID NO: 472 (designed binder) MLPAPKNLVVSRVTEDSARLSWTAPDAAFDSFFIGYLEPQPPGEAIELYVPGSERSYDLTGLKPGTEYNVTIQGVKGGFPSLPLVATFTT
B = CD71-binding FN3 domain of SEQ ID NO: 486 (designed binder) MLPAPENLVVSRVTEDSARLSWTALDAAFDSFFIGYLEPQPPGEAISLLVPGSERSYDLTGLKPGTEYNVTIQGVKGGIASEPLSAAFTT
C = CD71-binding FN3 domain of SEQ ID NO: 485 (designed binder) MLPAPKNLVVSRVTEDSARLSWTAPDAAFDSFFIGYLEPQPPGEAIHLWVPGSERSYDLTGLKPGTEYNVTIQGVKGGFPSLPLLAKFTT
Order by RLU, ascending. Provide your answer as the labels ordered per the instruction. B, C, A
(B: 1.98e+06 RLU, C: 3.23e+06 RLU, A: 4.97e+06 RLU)
